FYI, the data here is from ChEMBL document CHEMBL5058577.

Tested on: HEK-293T
procedure details: Multiplex assay against HEK293T
Format: toxicity, cell-based
measurement context: human, 24 h, 1 µM, compound concentration 1 uM, replicate 1
property measured: Population Fragmented Nuclei (%)
Write the answer as a number in %, unit excluded.

Consider the following illustrative entries.
CN1C[C@H](C(=O)N[C@]2(C)O[C@@]3(O)[C@@H]4CCCN4C(=O)[C@H](Cc4ccccc4)N3C2=O)C[C@@H]2c3cccc4[nH]cc(c34)C[C@H]21.CS(=O)(=O)O [DIHYDROERGOTAMINE MESYLATE] ... 9
Cc1cc(O)c(-c2ccc([C@@H](C)CN(C)C)cc2)c2c1[nH]c(=O)c1sccc12 ... 9
CN1CCC(C(=O)c2cccc(NC(=O)c3c(F)cc(F)cc3F)n2)CC1 ... 11

Now let's try a different one.
Asked: Could you share which Population Fragmented Nuclei (%) value was measured for O=C(Nc1cc(-c2ccccc2)nn1-c1ccccc1F)c1ccc([N+](=O)[O-])cc1 ?
Given back: 8
